reported-metric: melting point

**Q:** Which melting point is reported for this molecule? `CCOC(=O)c1c(C)oc2cc(N(C(C)=O)S(C)(=O)=O)c(Oc3ccccc3)cc2c1=O`
**A:** 166 to 168 °C

**Q:** Same for `O=C(O)CCCc1c(-c2ccc(F)cc2)[nH]c2ccc(-c3ccc(O)cc3)cc12`
**A:** 180 to 183 °C

**Q:** Query `Oc1ccc(OC[C@@H](O)CNCCc2ccc(-n3c(-c4ccc(C5CCCCC5)cc4)nc4cccnc43)cc2)cc1` next
**A:** 100 to 102 °C

**Q:** Input `N#Cc1ccc(Cl)cc1NC(=O)c1ccc(Br)cc1`
**A:** 151 to 152 °C

**Q:** Also, CC1=C(C(=O)OC2CCCC2)C(c2cccc([N+](=O)[O-])c2)C([N+](=O)[O-])=C(C)N1 (stereo not drawn) please.
**A:** 174 °C

**Q:** Input O=C(O)CCC(c1cc(F)ccc1F)S(=O)(=O)c1ccc(Cl)cc1 (stereo not drawn)
**A:** 157 to 158 °C

**Q:** And the next one, CCOC(=O)C[C@H]1c2ccc(OC)cc2CC[C@H]1c1ccc(OC)cc1 (racemic) ?
**A:** 81 °C

**Q:** Try `O=P1(O)Oc2c(-c3ccc(Cl)cc3)cc(Cl)cc2-c2ccc(Cl)cc21` next.
**A:** 260 °C

**Q:** Next molecule: CC(C)(C)OC(=O)N1C2C=CC(C2)N1CC(O)C(Cc1ccccc1)NC(=O)OCc1ccccc1 (mixture of isomers)
**A:** 111 to 113 °C

**Q:** Another molecule to check: `N=C(N)NC1=NC(=O)C(=Cc2cccc(-c3cc(F)c(O)c(C45CC6CC(CC(C6)C4)C5)c3)c2)S1`
**A:** 288 to 290 °C

**Q:** Lookup O=CN(O)CCCC(O)CS(=O)(=O)c1ccccc1Oc1ccc(OC(F)(F)F)cc1 (stereo not drawn)
**A:** 92 to 93.9 °C

**Q:** Continue with `CCCc1nc(Cl)nc(NCCO)n1`
**A:** 87 to 88 °C

**Q:** Consider next the molecule O=c1nc(-c2cccc(S(=O)CCCc3ccccc3)n2)sc2ccccc12 (stereo not drawn) in the same way.
**A:** 164 to 166 °C

**Q:** Queued: `CCC1(c2cccc(OCc3ccc4c(ccc(=O)n4C)c3)c2)CCOCC1`
**A:** 139 °C

**Q:** Request: `FC(F)(F)c1nc(Cl)sc1C(=S)OCc1ccccc1`
**A:** 61 to 63 °C

**Q:** Now consider `COc1cc2c(cc1OC)-c1[nH]c3ccc([N+](=O)[O-])cc3c1CC(=O)N2` .
**A:** > 330 °C

**Q:** Same for `CC(C)CN(CC(C)C)C(=O)c1ccc(F)c([N+](=O)[O-])c1`
**A:** 47 °C

**Q:** And the next one, NC(=O)CCC1CN(c2ccc3c(c2)OCC2CN(C(=O)CO)CCN32)C(=O)O1 (stereo not drawn) ?
**A:** 115 to 118 °C

**Q:** // next record `CCOc1cc(C(=CC#N)c2ccc(OC)c(-n3cccc3)c2)ccc1OC`
**A:** 109 to 111 °C

**Q:** Now the same for `C=CCNc1cc(Oc2ccccc2)c(Cl)cc1[N+](=O)[O-]`
**A:** 81 to 82 °C

**Q:** Repeat for the following molecule: `O=c1c(-c2ccccc2O)coc2cc(O)c(Cl)cc12`
**A:** > 250 °C

**Q:** Proceed to `Oc1ccccc1-c1ccc[nH]1`
**A:** 100 to 101 °C

**Q:** How about `Cc1c(CCc2ccccc2)c(=O)oc2cc(OCC#N)cc(OCC#N)c12` ?
**A:** 179 to 183 °C

**Q:** Also need `CCCc1nn(-c2ccc(C(F)(F)F)cn2)cc1CCCOc1ccc(CCC(=O)O)c(OC)c1` , thanks.
**A:** 114 to 115 °C

**Q:** # repeat for Cc1nn(-c2cc(OC(C)C(=O)NS(=O)(=O)c3cccc4c3OC(C)(C)C4)c(Cl)cc2F)c(=O)n1C(F)F (stereo not drawn)
**A:** 198 to 201 °C

**Q:** What do you have for NC(=O)C1CCCCc2cc3c(nc21)CCCCC3 (stereo not drawn) ?
**A:** 179 °C

**Q:** Try `CCCc1c(O)c(O)c(C(=O)O)c2cc(Cc3ccccc3)c(C)cc12` next.
**A:** 183 to 184 °C

**Q:** Similarly, O=S1CCc2nc(N3CCN(c4ccccc4)CC3)nc(Nc3cccc(Cl)c3)c21 (stereo not drawn) ?
**A:** 230 to 231 °C

**Q:** Cool, now `Nc1c(Oc2ccc(F)c(C(F)(F)F)c2)ncnc1Oc1ccc(F)c(C(F)(F)F)c1`
**A:** 104 to 105 °C

**Q:** Please do the same for CC1CC2C3CCC4=CC(=O)C=CC4(C)C3C(=O)CC2(C)C1C(=O)COC(=O)C(C)(C)C (stereo not drawn) as well.
**A:** 201 to 202 °C

**Q:** Entry CCn1c(=O)n(C2OC(CO)C(O)C2O)c2nc(N)[nH]c(=O)c21 (stereo not drawn) please
**A:** 185 to 187 °C

**Q:** Likewise for `Nc1ccc(Oc2ccc(Cl)c(Cl)c2)nc1` ?
**A:** 78 to 79.3 °C

**Q:** // next record `Cc1cc(Nc2ccnc(Nc3ccc(S(=O)(=O)N(C)C4CCN(Cc5cccn5C)CC4)cc3)n2)ccc1F`
**A:** 159 to 160 °C

**Q:** Next molecule: `CCOC(=O)c1ccc(CC#N)cc1Cl`
**A:** 60 °C

**Q:** And then CCSC(C)C(=O)N(CC)c1cn(-c2cccnc2)nc1Cl (stereo not drawn) , what is it?
**A:** 65 to 66 °C

**Q:** Another molecule: `Cc1cccc(N2CCN(Cc3ccc4c(c3)NCCN4)CC2)c1`
**A:** 135 to 136 °C

**Q:** Now the same for Cc1cc(C)cc(NCc2ccc3nc(NCCCN4CC(C)OC(C)C4)n(Cc4nc(C)ccc4O)c3c2)c1 (stereo not drawn)
**A:** 192 °C

**Q:** Let us now turn to `O=C(C=Cc1ccc(C(F)(F)F)cc1)C=Cc1ccc(C(F)(F)F)cc1`
**A:** 148 to 150 °C

* * *

Give melting point for every item shown.

**Q:** Fill blank: measured melting point of the compound `CCCOc1cc(-c2c(C(=O)OCC)c(Cn3cnnc3)nc3cc(OC)c(OC)cc23)ccc1OC` is ____.
**A:** 154 to 155 °C

**Q:** Do the same for `Oc1cc(Br)c2oc(-c3cc(F)c(O)c(F)c3)nc2c1` please
**A:** 270 to 272 °C

**Q:** Then what about the compound `O=C(O)c1ccc(-c2ccc(Cl)cc2)cn1` ?
**A:** > 260 °C

**Q:** Same again, this time with `CCN(CC)c1ccc(NC(C)=O)c(C)c1`
**A:** 114 to 115 °C

**Q:** Try this compound next: `O=C(Nc1cccc(Br)c1)Oc1ccc2ncccc2c1`
**A:** 260 °C

**Q:** How about `Cc1cn(-c2cc(NC(=O)c3ccc(Cl)c(C#Cc4ccc(NC5CCC5)nn4)c3)cc(C(F)(F)F)c2)cn1` ?
**A:** 225 to 227 °C

**Q:** Please give the result for `CCCCN1C(N)=NC(Oc2cccc(C)c2)=NS1(=O)=O` too.
**A:** 169 to 171 °C

**Q:** Another compound to check: O=C(NC1C2CC3CC(C2)CC1C3)C1CCCCN1 (stereo not given)
**A:** 112 to 114 °C

**Q:** Try `COC(=O)c1ccc(C(=O)Nc2ccccc2)cc1` next.
**A:** 189 to 190 °C

**Q:** // same read-out, input: CC1(O)CCN(C(=O)C(c2ccccc2)n2cnc3[nH]ncc3c2=S)CC1 (stereo not given)
**A:** 140 to 144 °C

* * *

Kindly state melting point for each of the entries shown.

**Q:** Look at this compound and give its reported melting point. `O=C(Nc1cccnc1)N1CCc2cc(I)ccc21`
**A:** 210 to 215 °C

**Q:** Would you mind doing `c1ccn(-c2nc(COc3ccc(CCCn4ccnc4)cc3)cs2)c1` as well?
**A:** 93 to 94 °C

**Q:** Now give it for COC(=O)c1cc(-c2ccccc2)c(=O)n2c1-c1sccc1S(=O)C2 (centres undefined) too.
**A:** 183 to 186 °C

**Q:** Continue with `O=c1[nH]c(=O)n(Cc2ccc(Cl)cc2)c2ccccc12`
**A:** 217 to 218 °C

**Q:** Check CC(C)(Sc1cc(C(C)(C)C)c(O)c(C(C)(C)C)c1)Sc1cc(C(C)(C)C)c(OCCC(O)C(O)CCO)c(C(C)(C)C)c1 (centres undefined) too.
**A:** 75 to 77 °C

**Q:** Param item: `COc1ccc2c(c1)CCc1cc(=O)[nH]nc1-2`
**A:** 246 to 248 °C

**Q:** Input `Cc1ccc(S(=O)(=O)OCCc2cccs2)cc1`
**A:** 30 °C

**Q:** Do the same for `Cc1c(Sc2ccc(Cl)cc2)c2cc(S(C)(=O)=O)ccc2n1CC(=O)O` please
**A:** 185 to 187 °C

**Q:** Repeat with `CC(C)(C)c1ccc(CCCCN2CCC(C3(O)c4ccccc4CCc4ccccc43)CC2)cc1`
**A:** 99 to 101 °C

**Q:** Same question, `N#Cc1ccc2c(c1)S(=O)(=O)N=CN2C1CC1` this time
**A:** 268 to 270 °C

**Q:** Subsequent entry: CSC1CC(c2cc(Cl)c(C)c(Cl)c2)=NNC1=O (centres undefined)
**A:** 112 to 115 °C

**Q:** Record: `COC(=O)COc1cc(C(C)C)c(SC#N)cc1C`
**A:** 67 to 69 °C

**Q:** Moving on to the next compound: CC1=C(C(=O)NC(C)(C)C)C(c2ccccc2Br)C(C(=O)OC(C)C)=C(COCCn2c(C)nc3cnccc32)N1 (centres undefined)
**A:** 160 to 165 °C

**Q:** Let us now turn to CCOC(Cc1ccc(OCCN2CCOc3ccccc32)cc1)C(=O)NC (centres undefined)
**A:** 97 to 99 °C

**Q:** Let us now turn to `O=C1C[C@@H](Nc2ncnc3c2ncn3[C@@H]2O[C@H](CO)[C@@H](O)[C@H]2O)C(=O)N1`
**A:** 167 to 169 °C

**Q:** Similarly, `COc1ccc(S(=O)(=O)N(CC(N)=O)c2c(CCc3ccccc3)cccc2OC)cc1OC` ?
**A:** 244 °C

**Q:** Entry O=C(O)CCCCC1Cc2ccc(F)cc2C1=O (centres undefined) please
**A:** 122 to 123 °C

**Q:** Query `Cn1cc(C(=O)NCc2ccc(Cl)cc2)c(=O)c2cc(CN3CCOCC3)cc(C#CCC(CO)CO)c21` next
**A:** 190 to 193 °C

**Q:** Try this compound next: Cn1c([N+](=O)[O-])cnc1CS(=O)c1ccccn1 (centres undefined)
**A:** 160 °C

**Q:** Try COc1ccc(C(=O)N2c3ccccc3C(n3c4ccccc4c4ccccc43)CC2CCCCCN(C)C(C)=O)cc1OC (centres undefined) next.
**A:** 173 to 175 °C

**Q:** Same again, this time with `CCOc1cc([C@@H](CS(C)(=O)=O)N2C(=O)c3cccc(NC(=O)COC)c3C2=O)ccc1OC`
**A:** 151 to 153 °C

**Q:** Same again, this time with `Cc1nc2cccc3n(CCC4CCN(S(=O)(=O)C(F)(F)F)CC4)c(=O)c1n23`
**A:** 169 to 170 °C

**Q:** Cool, now `COc1cccc(CC(=O)O)c1OCCCc1cn(-c2ccccn2)nc1C(C)C`
**A:** 102 to 104 °C

**Q:** Continue with `CCCCN1CC(=O)N(c2cc(Cl)ccc2C)C1=S`
**A:** 102 to 103 °C

**Q:** And then COC(=O)CSC(C)c1ccc(-c2ccc(OC)cc2)cc1 (centres undefined) , what is it?
**A:** 59 to 61 °C

**Q:** Entry `Cc1cc(Cn2nc(C(F)(F)F)cc2C(F)(F)F)ccc1NC(=O)c1cccc(I)c1C(=O)NC(C)(C)CS(C)(=O)=O` please
**A:** 104 to 107 °C

**Q:** Now the same for O=C(O)C1CCCc2sc(=O)[nH]c21 (centres undefined)
**A:** 192 °C

**Q:** Now the compound `CCn1nc(C(F)(F)F)c(CS(=O)(=O)C2=NOC(C)(C)C2)c1OC(F)F`
**A:** 98 to 100 °C

**Q:** Same read-out for `FC(F)(F)c1ccc(COc2ccnc(CSc3nc4cscc4[nH]3)c2)cc1` ?
**A:** 141 to 143 °C

**Q:** Likewise for `Cc1cccc(C)c1NCC(=O)c1ccc(Cl)cc1` ?
**A:** 82 °C

**Q:** // same read-out, input: `N#Cc1ccc2oc(C(=O)CBr)cc2c1`
**A:** 156 to 158 °C

**Q:** Check COc1ccc2c(c1)C(CCNC(C)=O)CCO2 (centres undefined) too.
**A:** 138 °C

**Q:** CN(C(=O)c1cn2ccc(-c3ccc(Cl)cc3)cc2n1)C(Cc1ccc(OCc2ccccc2)cc1)C(=O)O (centres undefined) ?
**A:** 222 °C

**Q:** Consider next the compound O=C(O)CC1=CCCCC1n1nc(-c2c(-c3ccccc3)nn3ccccc23)ccc1=O (centres undefined) in the same way.
**A:** 164 to 166 °C

**Q:** Input `CC1=C(C(=O)OC(C)(C)C)C(c2ccccc2[N+](=O)[O-])C(C(=O)OC(C)(C)C)=C(C)N1`
**A:** 159 to 161 °C

**Q:** Next up: `O=c1[nH]nccc1-c1ccccc1`
**A:** 216 to 219 °C

**Q:** Also, `CC(C)(C)OC(=O)c1ccc(NC#N)cc1` please.
**A:** 94 to 95 °C

**Q:** Could you do the same for O=C(O)C1CC(C(=O)O)C(C(=O)O)C1C(=O)O (centres undefined) , please?
**A:** 186 °C

**Q:** Do the same for CN(CCC(=O)O)c1ccccc1CNC(=O)C1Cc2ccccc2N1S(=O)(=O)c1ccc(-c2ccc(F)cc2Cl)cc1 (centres undefined) please
**A:** 75 to 83 °C
